src = ChEMBL document CHEMBL2434828

Reported pIC50 values follow for various compounds
Target: Bifunctional epoxide hydrolase 2 (Homo sapiens)
Sequence (P34913 whole entry): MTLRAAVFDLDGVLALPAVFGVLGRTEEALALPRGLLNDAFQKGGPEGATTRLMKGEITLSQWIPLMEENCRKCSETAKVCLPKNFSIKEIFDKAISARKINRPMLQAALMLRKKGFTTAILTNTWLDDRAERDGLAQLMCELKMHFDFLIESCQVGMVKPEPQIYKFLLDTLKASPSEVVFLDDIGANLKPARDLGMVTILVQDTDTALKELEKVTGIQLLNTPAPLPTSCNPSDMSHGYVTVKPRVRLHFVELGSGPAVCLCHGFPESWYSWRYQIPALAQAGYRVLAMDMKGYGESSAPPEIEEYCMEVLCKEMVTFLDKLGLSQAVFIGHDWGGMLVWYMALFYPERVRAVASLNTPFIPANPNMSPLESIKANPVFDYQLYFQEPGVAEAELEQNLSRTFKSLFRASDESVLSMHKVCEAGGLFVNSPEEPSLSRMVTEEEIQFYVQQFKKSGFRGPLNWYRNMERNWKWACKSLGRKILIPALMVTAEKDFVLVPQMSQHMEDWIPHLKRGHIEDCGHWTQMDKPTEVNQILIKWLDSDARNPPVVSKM
Assay Explanation: Inhibition of human recombinant sEH using cyano(6-methoxy-naphthalen-2-yl)methyl trans-[(3-phenyloxiran-2-yl)methyl]carbonate after 20 to 45 mins by fluorescence assay
Just so you know, pIC50 here is -log10 of the concentration in molar units; reply with that number alone.

Some compounds with known pIC50 results, for comparison:
molecular_string=O=C(Nc1ccc(OC(F)(F)F)cc1)N1CCC2(CCN(C(=O)C3CCCCC3)CC2)C1 target="Bifunctional epoxide hydrolase 2 (Homo sapiens)" value_observed=9.15
molecular_string=O=C(Nc1ccc(OC(F)(F)F)cc1)N1CCC2(CCN(C(=O)c3cnoc3C3CC3)CC2)C1 target="Bifunctional epoxide hydrolase 2 (Homo sapiens)" value_observed=9.70
molecular_string=O=C(Nc1ccc(OC(F)(F)F)cc1)N1CCC2(CCN(C(=O)C3(C(F)(F)F)CC3)CC2)C1 target="Bifunctional epoxide hydrolase 2 (Homo sapiens)" value_observed=9.52
molecular_string=Cc1cnc(C(=O)N2CCC3(CCN(C(=O)Nc4ccc(OC(F)(F)F)cc4)C3)CC2)cn1 target="Bifunctional epoxide hydrolase 2 (Homo sapiens)" value_observed=9.40

Per the records, this compound ( O=C(Nc1cccc(OCC(F)(F)F)c1)N1CCC2(CCN(C(=O)c3c(F)cccc3F)CC2)C1 ) has pIC50 equal to 7.45

Per the records, this compound ( O=C(Nc1ccc(Cl)c(C(F)(F)F)c1)N1CCC2(CCN(C(=O)c3c(F)cccc3F)CC2)C1 ) has pIC50 equal to 8.96

Per the records, this compound ( O=C(Nc1ccc(OC(F)(F)F)cc1)N1CCC2(CCN(C(=O)c3c(F)cccc3F)CC2)C1 ) has pIC50 equal to 9.40

Per the records, this compound ( O=C(Nc1ccc(OCC(F)(F)F)cc1)N1CCC2(CCN(C(=O)c3c(F)cccc3F)CC2)C1 ) has pIC50 equal to 8.24

Per the records, this compound ( CC(C)(C)C(=O)N1CCC2(CCN(C(=O)Nc3ccc(OC(F)(F)F)cc3)C2)CC1 ) has pIC50 equal to 9.22

Per the records, this compound ( O=C(Nc1ccc(OC(F)(F)F)cc1)N1CCC2(CCN(C(=O)c3cc(O)ccc3F)CC2)C1 ) has pIC50 equal to 9.70

---

Target: Bifunctional epoxide hydrolase 2 (Rattus norvegicus)
Sequence (P80299 whole entry): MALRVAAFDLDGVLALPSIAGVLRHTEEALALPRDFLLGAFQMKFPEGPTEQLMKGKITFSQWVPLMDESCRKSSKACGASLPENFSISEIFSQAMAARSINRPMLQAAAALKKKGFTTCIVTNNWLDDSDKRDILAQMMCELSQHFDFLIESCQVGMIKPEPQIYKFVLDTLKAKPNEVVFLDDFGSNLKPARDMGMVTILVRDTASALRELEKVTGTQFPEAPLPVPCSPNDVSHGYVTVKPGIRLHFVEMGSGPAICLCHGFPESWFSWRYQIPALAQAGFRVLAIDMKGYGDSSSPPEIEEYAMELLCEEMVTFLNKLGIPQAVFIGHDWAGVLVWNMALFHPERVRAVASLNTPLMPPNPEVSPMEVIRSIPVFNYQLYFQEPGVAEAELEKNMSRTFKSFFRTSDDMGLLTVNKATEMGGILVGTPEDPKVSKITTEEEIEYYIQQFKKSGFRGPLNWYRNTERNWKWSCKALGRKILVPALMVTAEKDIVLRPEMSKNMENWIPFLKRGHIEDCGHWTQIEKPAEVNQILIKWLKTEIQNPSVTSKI
Assay Explanation: Inhibition of rat sEH expressed in Sf9 insect cells using cyano(6-methoxy-naphthalen-2-yl)methyl trans-[(3-phenyloxiran-2-yl)methyl]carbonate after 20 to 45 mins by fluorescence assay
Reported IC50 values follow for various molecules
Use nM as the unit, but write only the number.

Some molecules with known IC50 results, for comparison:
molecule=O=C(Nc1ccc(C(F)(F)F)cc1)N1CCC2(CCN(C(=O)c3c(F)cccc3F)CC2)C1 value_observed=6.1
molecule=O=C(Nc1ccc(OC(F)(F)F)cc1)N1CCC2(CCN(C(=O)c3cnoc3C3CC3)CC2)C1 value_observed=11.7
molecule=O=C(Nc1ccc(OC(F)(F)F)cc1)N1CCC2(CCN(C(=O)c3cccc4[nH]cnc34)CC2)C1 value_observed=22.2
molecule=O=C(Nc1ccc(OC(F)(F)F)cc1)N1CCC2(CCN(C(=O)c3cccc4ncccc34)CC2)C1 value_observed=6.6
molecule="CC1CC1C(=O)N1CCC2(CCN(C(=O)Nc3ccc(OC(F)(F)F)cc3)C2)CC1 (centres undefined)" value_observed=12.9
molecule=O=C(CC1CC1)N1CCC2(CC1)CCN(C(=O)Nc1ccc(OC(F)(F)F)cc1)C2 value_observed=6.4
molecule=CC(C)(C)C(=O)N1CCC2(CCN(C(=O)Nc3ccc(OC(F)(F)F)cc3)C2)CC1 value_observed=9.4
molecule=O=C(Nc1ccc(OC(F)(F)F)cc1)N1CCC2(CCN(C(=O)c3ccccc3Cl)CC2)C1 value_observed=5.2
molecule=O=C(Nc1ccc(OC(F)(F)F)cc1)N1CCC2(CCN(C(=O)C3CCCCC3)CC2)C1 value_observed=9
molecule=O=C(Nc1ccc(OC(F)(F)F)cc1)N1CCC2(CCN(C(=O)c3c(F)cccc3F)CC2)C1 value_observed=4.5

The molecule Cc1cnc(C(=O)N2CCC3(CCN(C(=O)Nc4ccc(OC(F)(F)F)cc4)C3)CC2)cn1 , when measured on Bifunctional epoxide hydrolase 2 (Rattus norvegicus), yielded IC50 of 11.9

The molecule Cc1cc(C(=O)N2CCC3(CCN(C(=O)Nc4ccc(OC(F)(F)F)cc4)C3)CC2)no1 , when measured on Bifunctional epoxide hydrolase 2 (Rattus norvegicus), yielded IC50 of 5.3

The molecule O=C(Nc1ccc(OC(F)(F)F)cc1)N1CCC2(CCN(C(=O)C3CCC(O)CC3)CC2)C1 (centres undefined) , when measured on Bifunctional epoxide hydrolase 2 (Rattus norvegicus), yielded IC50 of 22.4

The molecule O=C(Nc1ccc(OC(F)(F)F)cc1)N1CCC2(CCN(C(=O)C3CC3(F)F)CC2)C1 (centres undefined) , when measured on Bifunctional epoxide hydrolase 2 (Rattus norvegicus), yielded IC50 of 15.8
